Experiment: in vitro
Conditions: human, Caco-2
measured-parameter: efflux ratio at 60 min, 10 μM
Answers are plain numbers.

[Q] Please give the measured efflux ratio at 60 min, 10 μM for this compound: CC(C)C[C@H]1NC(=O)[C@@H](C)N(C)C(=O)[C@H](C2CCCCC2)NC[C@H]2CCc3cccc(c3O2)CCCNC1=O [Compound 801]
[A] 0.672

---

Would you mind telling me the reported pEC50 of each entry?
Target: GHS-R1a receptor (human ghrelin receptor) (Homo sapiens)
Sequence (Q92847 whole entry): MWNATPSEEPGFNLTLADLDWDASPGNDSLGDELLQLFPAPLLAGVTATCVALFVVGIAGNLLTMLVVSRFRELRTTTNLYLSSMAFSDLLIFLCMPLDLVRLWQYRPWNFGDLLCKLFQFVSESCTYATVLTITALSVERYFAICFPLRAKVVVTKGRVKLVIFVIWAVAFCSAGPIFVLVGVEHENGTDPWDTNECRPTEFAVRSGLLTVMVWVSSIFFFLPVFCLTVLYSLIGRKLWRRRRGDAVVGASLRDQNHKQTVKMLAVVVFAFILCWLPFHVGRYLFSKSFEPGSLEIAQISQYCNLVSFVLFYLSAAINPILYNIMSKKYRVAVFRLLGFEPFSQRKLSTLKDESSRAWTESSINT
Assay: Aequorin functional assay (ghrelin receptor), standard method B
Type: cell-based
Details: functional activity at the human ghrelin receptor, standard method B (Aequorin)
pEC50: −log10 of the molar value.

For orientation, consider the following solved cases.
C[C@@H]1CNC(=O)[C@@H](Cc2ccc(F)cc2)NC(=O)[C@@H](C)N(C)C(=O)[C@H](C2CC2)NC[C@@H](C)Oc2ccccc2C1	≥ 7.00
C[C@@H]1CN[C@@H](C2CCCCC2)C(=O)N(C)[C@H](C)C(=O)N[C@H](Cc2ccc(F)cc2)C(=O)NCCCc2ccccc2O1	≥ 7.30
CC1CNC(C2CC2)C(=O)N(C)C(C)C(=O)NC(CC(C)(C)C)C(=O)NCCCc2ccccc2O1 (stereo not drawn)	≥ 7.00

Could you report pEC50 for every entry in the following list?
1. C[C@@H]1C(=O)N[C@H](Cc2ccc(F)cc2)C(=O)NCCCc2cccc3c2O[C@H](CC3)CN[C@@H](C2CC2)C(=O)N1C
2. C[C@@H]1CN[C@@H](C2CC2)C(=O)N(C)[C@H](C)C(=O)N[C@H]([C@H](C)c2ccc(F)cc2)C(=O)NCCCc2ccccc2O1
3. CC(C)C[C@H]1NC(=O)[C@@H](C)N(C)C(=O)[C@H](C2CC2)NC[C@H]2CCc3cccc(c3O2)CCCNC1=O
4. C[C@@H]1CN[C@@H](C2CCCCC2)C(=O)N(C)[C@H](C)C(=O)N[C@H](Cc2ccc(O)cc2)C(=O)NCCCc2ncccc2O1
5. CC(C)C[C@H]1NC(=O)[C@@H](C)N(C)C(=O)[C@H](C2CCCCC2)NC[C@@H](C)Oc2cccnc2CCCNC1=O
6. C[C@@H]1CN[C@@H](C2CC2)C(=O)N(C)[C@H](C)C(=O)N[C@H](Cc2cccnc2)C(=O)NCCCc2ccccc2O1
7. CC(C)C[C@H]1NC(=O)[C@@H](C)N(C)C(=O)[C@H](C2CC2)NC[C@@H](C)Oc2ccccc2CCCNC1=O
8. CC(C)[C@@H](O)[C@H]1NC(=O)[C@@H](C)N(C)C(=O)[C@H](C2CC2)NC[C@@H](C)Oc2ccccc2CCCNC1=O

[A]
1. ≥ 7.30
2. ≥ 6.40
3. ≥ 7.00
4. ≥ 7.30
5. ≥ 7.00
6. < 6.40
7. ≥ 6.40
8. ≥ 7.00

[Q] # pEC50 lookup, item CC[C@H](C)[C@@H]1NC[C@@H](C)Oc2ccccc2CCCNC(=O)[C@@H](Cc2cccnc2)NC(=O)[C@@H](C)N(C)C1=O
[A] ≥ 6.40
